In this section, each of the compounds is paired with its reported melting point.

{"columns": ["compound", "melting point"],
 "data": [
  ["CC1(C)Cc2cc(O)c3c(c2C(c2ccccc2)=N1)CC(C)(C)O3", "208 to 210 °C"],
  ["O=C(Nc1ccc(C(=O)N2C=C3CC=CN3Cc3ccccc32)cc1)c1ccccc1F", "257 to 260 °C"],
  ["Cc1ccc(S(=O)(=O)Nc2c(C)c(C)c3c(c2C)CC(C)(C)O3)cc1", "219 to 220 °C"]
]}

CCOC(=O)N(c1ccc(Cl)cc1)c1ccccc1[N+](=O)[O-] yielded melting point of 90 to 93 °C

The compound listed as O=c1[nH]c2cc([N+](=O)[O-])ccc2c(=O)n1S(=O)(=O)c1ccc(Cl)cc1 shows melting point equal to 258 to 260 °C

The reported melting point of the compound COC(=O)n1cc(C)c2c(OCc3ccccc3)c(OC)ccc21 was 124 °C

Entry COC(=S)NS(=O)(=O)c1ccc(Cl)cc1 , melting point reported as 129 to 130 °C

Form: compound = CN(c1ccccc1)c1ncnc2c(I)cnn12 ; melting point = 193 °C

Entry Oc1ccc(C2COc3cc(O)ccc3C2c2ccc(OCCN3CCCC3)cc2)cc1 (stereo unspecified) , melting point reported as 112 to 116 °C
